Cited source: the supplement of paper PMC10567573

B1: TRIM43 (parent)
chain: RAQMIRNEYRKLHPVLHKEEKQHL

- Variants of: B1
- experimentSummary: protein stability index of a GFP-peptide fusion (GPS, HEK-293T) (PSI 1-6); higher = more stable;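 also: lentivirally expressed fusions sorted by FACS into six bins by GFP to DsRed ratio, PSI derived from sequencing read proportions per bin multiplied by bin number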
- runConditions: c terminus: a fixed tail appended
readoutKind: protein stability index
One number for each entry.

sequence: RAQMIRNEYRKLHPVSHKEEKQHL [L16S]
measurement: 3.65
--
sequence: RAQMIRNEYMKLHPVLHKEEKQHL [R10M]
measurement: 2.91
--
sequence: RAQMIRNEYRKLHPVLHAEEKQHL [K18A]
measurement: 2.81

Working through the 8 variants below one at a time, give protein stability index for each.
1. RAQMIKNEYRKLHPVLHKEEKQHL [R6K]
2. RAQMIRNEYRKLHPVLHKEEKLHL [Q22L]
3. RAQMIRNEYRKLDPVLHKEEKQHL [H13D]
4. RAQMIRNCYRKLHPVLHKEEKQHL [E8C]
5. RAQMIRNEYRKLHPVLHKEERQHL [K21R]
6. RAQMIRNEYRKLHPVLRKEEKQHL [H17R]
7. RAQMIRNEYRKLHPVLEKEEKQHL [H17E]
8. RAQMIRNEYRKLAPVLHKEEKQHL [H13A]

[3.39, 2.33, 3.75, 2.59, 3.46, 3.79, 4.14, 3.46]
